Target: ScBzz1-D2
Test: SPOT peptide array binding signal intensity (averaged, normalized) (arbitrary units (background-subtracted, floor 0; scale differs between SH3 domains)); higher = stronger binding of the SH3 domain to the peptide
Parameter SPOT peptide array binding signal intensity: see the listing below.
I'd appreciate a reply containing only the number, no unit.

// worked examples, SPOT peptide array binding signal intensity included
# BINDER, VALUE REPORTED
rows = [
    ("YLTRPLPSTPNEDSR", 14),
    ("ATNVPVAPPPPPASL", 2),
]

Here is the next item to consider.
What value of SPOT peptide array binding signal intensity has been reported for the following binder? AERNYAPRLPRRETS
73.8
